System: Calf thymus DNA
PROTOCOL_DETAILS: Binding affinity to calf thymus DNA at 25 degC at pH 7.4 after 10 mins by Stern-Volmer plot analysis
Assay type: nucleic-acid assay
PROTOCOL_CONDITIONS: Bos taurus
QUANTITY: Kb (×10⁴ /M)
Report the value in ×10⁴ /M with no unit label.

STRUCTURE	MEASURED
O=C(CCCCCCCCC(=O)Nc1ccc(-c2c(-c3ccc(OCCN4CCCCC4)cc3)c3ccccc3oc2=O)cc1)Nc1ccc(-c2c(-c3ccc(OCCN4CCCCC4)cc3)c3ccccc3oc2=O)cc1	2.1

Kindly review the next compound as well.
## Task Reported Kb, compound O=C(Nc1ccc(-c2c(-c3ccc(OCCN4CCCCC4)cc3)c3ccccc3oc2=O)cc1)c1cccc(C(=O)Nc2ccc(-c3c(-c4ccc(OCCN5CCCCC5)cc4)c4ccccc4oc3=O)cc2)c1 : ____
## Result 1.3
